The entries below come with measured pIC50 values attached.
System tested: POLRMT (Homo sapiens (Human))
Sequence (O00411 42-1230): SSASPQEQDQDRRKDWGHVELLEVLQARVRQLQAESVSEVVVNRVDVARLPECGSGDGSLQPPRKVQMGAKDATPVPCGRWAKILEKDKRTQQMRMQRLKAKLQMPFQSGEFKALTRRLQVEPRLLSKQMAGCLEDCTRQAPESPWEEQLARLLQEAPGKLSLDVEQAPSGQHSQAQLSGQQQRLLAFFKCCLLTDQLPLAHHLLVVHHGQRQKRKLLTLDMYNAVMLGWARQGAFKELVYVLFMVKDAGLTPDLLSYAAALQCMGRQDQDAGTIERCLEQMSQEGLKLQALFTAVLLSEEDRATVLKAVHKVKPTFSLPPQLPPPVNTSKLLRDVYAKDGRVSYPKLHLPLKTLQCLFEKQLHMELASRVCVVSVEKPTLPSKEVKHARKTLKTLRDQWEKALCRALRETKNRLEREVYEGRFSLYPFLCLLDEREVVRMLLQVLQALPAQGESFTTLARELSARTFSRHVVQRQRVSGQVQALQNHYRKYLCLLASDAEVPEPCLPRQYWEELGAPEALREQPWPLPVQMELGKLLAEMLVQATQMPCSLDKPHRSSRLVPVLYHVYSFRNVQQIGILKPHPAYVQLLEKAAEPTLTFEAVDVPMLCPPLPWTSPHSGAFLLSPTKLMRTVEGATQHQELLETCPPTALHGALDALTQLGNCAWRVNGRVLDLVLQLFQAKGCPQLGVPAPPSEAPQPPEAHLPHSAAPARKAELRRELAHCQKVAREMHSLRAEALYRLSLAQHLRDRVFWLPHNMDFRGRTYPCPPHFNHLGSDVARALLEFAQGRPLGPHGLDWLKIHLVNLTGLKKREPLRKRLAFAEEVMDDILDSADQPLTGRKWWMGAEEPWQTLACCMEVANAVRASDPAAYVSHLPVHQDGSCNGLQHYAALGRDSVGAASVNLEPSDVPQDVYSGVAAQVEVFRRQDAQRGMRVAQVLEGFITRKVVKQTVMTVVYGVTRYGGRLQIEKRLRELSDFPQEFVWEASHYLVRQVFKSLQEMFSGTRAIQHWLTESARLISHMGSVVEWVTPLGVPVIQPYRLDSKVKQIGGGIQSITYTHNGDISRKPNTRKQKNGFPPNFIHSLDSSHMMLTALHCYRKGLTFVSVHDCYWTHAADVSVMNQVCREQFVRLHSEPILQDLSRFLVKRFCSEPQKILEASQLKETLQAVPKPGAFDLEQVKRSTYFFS
FYI, pIC50 means -log10 of a concentration in mol per litre.

Entry `O=C(O)CCNc1ccc2c(-c3ccccc3Cl)cc(=O)oc2c1` , system POLRMT (Homo sapiens (Human)): what pIC50 was measured? 5.10

What is its pIC50 for POLRMT (Homo sapiens (Human))? Entry: `CC[C@@H](C(=O)O)N(C)c1ccc2c(-c3ccccc3C)cc(=O)oc2c1` 6.70

Entry `C[C@H](Cc1ccc2c(-c3ccc(F)cc3Cl)cc(=O)oc2c1)C(=O)N(C)C` , system POLRMT (Homo sapiens (Human)): what pIC50 was measured? 4.31

Value wanted: pIC50 (POLRMT (Homo sapiens (Human))) of entry Cc1ccccc1-c1cc(=O)oc2cc(N(C)CC(C)C(=O)O)ccc12 (stereo not shown) [Example 155-2] 6.40

Give recorded pIC50 with POLRMT (Homo sapiens (Human)) for the following molecule: Cc1ccccc1-c1cc(=O)oc2cc(CC(C)C(=O)N(C)C)ccc12 (single isomer, unassigned) 6.52

// below: pIC50 requested for another molecule
Record Cc1ccccc1-c1cc(=O)oc2cc(C(C)N)ccc12 (stereo not shown) : what is its pIC50 with POLRMT (Homo sapiens (Human))? 4.70
